Test Protocol: qHTS for H2AX Agonists against the NCATS CANVASS Library (AID 1347378);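 note: phospho-H2AX S139 level in CHO-K1 lysates by TR-FRET emission ratio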; for activation: 0% is about no effect
Recorded Conditions: CHO-K1 H2AX phosphorylation, HTRF TR-FRET, 3 h; series mostly up to 76.9 µM
Results filed as inconclusive are left out. The source made the active and inactive calls. Calls come from the whole dose curve; as a rule, active = well fitted activation curve with a large enough effect; inconclusive = small, poorly fitted or top-dose-only effect; inactive = flat fitted curve, though single readings scatter.
Form entry, call: pick from 1.0 = active, 0.0 = inactive

In: Hey, what did the test say about COc1cc(/C=C2/C(=O)N(c3ccc(O)cc3C(=O)O)[C@H](c3ccc(O)c(OC)c3)C2C(=O)Nc2ccc(O)cc2C(=O)O)ccc1O (some centres undefined) ?
Out: 0.0

In: Hey, what did the test say about C/C=C/C(=O)[C@@H](C)C1=CC(=O)C2=C(O[C@@]34CC[C@H](O)C(C)(C)[C@@H]3CC[C@H](C)[C@@]4(C)C2)C1=O ?
Out: 1.0

In: Hey, what did the test say about CN1CCc2cc3c(c4c2[C@H]1[C@@H](O)c1ccccc1-4)OCO3 ?
Out: 0.0

In: Hey, what did the test say about CN1C(=O)C2C(N=CN2C)N(C)C1=O (centres undefined) ?
Out: 0.0

====

Test Protocol: S16 Schwann cell viability assay (CellTiter-Glo assay) (AID 624031);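 note: native untransfected S16 rat Schwann cells; cellular ATP luminescence as a viability measure; plate controls were DMSO-treated cells for no effect and cell-free wells for full effect; nearly all actives have a fitted effect of over 70% in size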
Recorded Conditions: S16 rat Schwann cells viability, 24 h; series mostly up to 57.5 µM
Results filed as inconclusive are left out. The source made the active and inactive calls. The call rests on the fitted dose curve; in most records, active means well fitted cell-killing curve with a large enough effect; inconclusive means small, poorly fitted or top-dose-only effect, or effect the other way; inactive means flat fitted curve, though single readings scatter.
Readout Name: outcome

Molecule	Observed
CC(C)(O)c1ccccc1CC[C@H](SCC1(CC(=O)O)CC1)c1cccc(/C=C/c2ccc3ccc(Cl)cc3n2)c1	inactive
COC(=O)[C@@H]1[C@@H]2C[C@H]3c4[nH]c5ccccc5c4CCN3C[C@@H]2CC[C@@H]1O	inactive
CC(=O)[C@H]1CC[C@H]2C3CC=C4C[C@@H](O)CC[C@]4(C)C3CC[C@]12C (stereo partly specified)	inactive
O=C1c2cccc3c2[C@@H](CCC3)CN1[C@@H]1CN2CCC1CC2	inactive
CCCCC(=O)N(Cc1ccc(-c2ccccc2-c2nn[nH]n2)cc1)C(C(=O)O)C(C)C (stereo unspecified)	inactive

Turning to the following molecule.
In: Requested field: outcome. Item: C[C@@H](C(=O)O)c1ccc(-c2ccccc2)c(F)c1
Out: inactive

====

For each of the compounds below, state its Z-AUC.
Test Protocol: qHTS drug screen for cell cycle checkpoint inhibitors in PARPi-resistant BRCA-mutant ovarian cancer cell lines. (AID 1963452)
Recorded Conditions: PEO1/OlaR viability, CellTiter-Glo luminescence, 96 h; measured here: PEO1 parental Z-AUC; stronger effect = lower value
Could you respond with only the numeric value?

In: Requested field: Z-AUC. Item: CN(C)C(=O)c1cc2cnc(Nc3ccc(N4CCNCC4)cn3)nc2n1C1CCCC1
Out: 0.759

In: Requested field: Z-AUC. Item: C[C@@H]1CCNC(=O)c2cc3ccc(C(=O)Nc4nc5ccccc5n4CCCN(C)C)cc3n21
Out: -0.925

In: Requested field: Z-AUC. Item: COC(=O)/C=C/C(=O)N(O)CCCCNCc1ccc(COC(=O)Nc2cccc3ccccc23)cc1
Out: 0.0181

In: Requested field: Z-AUC. Item: Cc1cc(CS(=O)(=O)c2ccccc2)cc(OCc2ccc(CN3CCC[C@@H]3CO)cc2)c1
Out: 0.253

In: Requested field: Z-AUC. Item: O=S(=O)(NCCNC/C=C/c1ccc(Br)cc1)c1cccc2cnccc12
Out: 1.26

In: Requested field: Z-AUC. Item: COCCNCc1ccc(-c2cc3nccc(Oc4ccc(NC(=S)NC(=O)Cc5ccc(F)cc5)cc4F)c3s2)nc1
Out: -0.316

In: Requested field: Z-AUC. Item: CN(C)Cc1cccc(N=C(c2ccccc2)c2c(O)[nH]c3cc(C(N)=O)ccc23)c1
Out: 0.627

In: Requested field: Z-AUC. Item: Clc1ccc(-c2nc3sccn3c2/C=N/OCc2ccc(Cl)c(Cl)c2)cc1
Out: 1.09

====

Test System: Nuclear receptor subfamily 1 group I member 3 (Homo sapiens) (UniProt Q14994)
Sequence (Q14994 whole entry, looked up): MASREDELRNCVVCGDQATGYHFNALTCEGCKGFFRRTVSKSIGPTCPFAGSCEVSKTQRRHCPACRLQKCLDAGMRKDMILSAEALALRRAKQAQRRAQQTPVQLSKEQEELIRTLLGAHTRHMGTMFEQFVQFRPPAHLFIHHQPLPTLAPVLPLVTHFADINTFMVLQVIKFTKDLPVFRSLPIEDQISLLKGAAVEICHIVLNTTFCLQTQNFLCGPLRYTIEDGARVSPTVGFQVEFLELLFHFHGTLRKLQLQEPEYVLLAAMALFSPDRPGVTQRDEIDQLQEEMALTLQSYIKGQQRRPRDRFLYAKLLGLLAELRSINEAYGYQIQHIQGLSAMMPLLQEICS
Test Protocol: qHTS for Constitutive Androstane Receptor (CAR) Agonist screened against the NCATS CANVASS Library (AID 1347373);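 note: every well also contained 1.5 µM PK11195 alongside the test compound; 0% is about no effect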
Recorded Conditions: HepG2-hCAR-CYP2B6 luciferase reporter, ONE-Glo luminescence; series mostly up to 46.1 µM
Inconclusive results are not listed. The source made the active and inactive calls. Calls come from the whole dose curve; as a rule, active = well fitted activation curve with a large enough effect; inconclusive = small, poorly fitted or top-dose-only effect; inactive = no such curve, though single readings can be large or run the other way.

Compound	activation
Oc1ccc([C@H]2Oc3ccc(/C=C/c4cc(O)cc(O)c4)cc3C2c2cc(O)cc(O)c2)cc1 (stereo partly drawn)	inactive
CC[C@@H]1C[C@@]2(CC)OC(=O)[C@@]3(CC)OC(=O)[C@@H]1[C@@H]23	inactive
CC(=O)[C@@H]1[C@@H](O)C[C@H]2[C@]3(C)CC[C@H]4C(C)(C)CCC[C@]4(CO)[C@H]3C[C@H]3OC(=O)[C@@H]1[C@@]32C	inactive

====

Test Protocol: qHTS assay to identify inhibitors of the type 1 interferon - major histocompatibility complex class I in skeletal muscle: Counter screen cell viability and HiBit confirmation (AID 1347412); note: % is set by controls: 0 for no effect and ±100 for the full control effect; nearly all actives have a fitted effect of over 60% in size
Recorded Conditions: iHSKM muscle cells + IFN-b, HiBiT or CellTiter-Glo, 24 h; HiBiT; at 45.9 µM (top of the series)
Records with an inconclusive call do not appear.
For each of the compounds below, state its activity change, negative = inhibition.
Numeric only. Scale: %

In: Requested field: activity change, negative = inhibition. Item: Oc1ccc(Nc2nc(-c3ccc(Cl)cc3)cs2)cc1
Out: -38.1

In: Requested field: activity change, negative = inhibition. Item: O=c1c(-n2ccnn2)c[nH]n1-c1cc(N2CCOCC2)ncn1
Out: -24.7

In: Requested field: activity change, negative = inhibition. Item: CNCc1ccc(C)c(NC(=O)c2ccc(Nc3nc(-c4ccccc4)c4ccccc4n3)cc2)c1
Out: -20

In: Requested field: activity change, negative = inhibition. Item: Nc1ncnc(Nc2ccc(OCc3ccccc3)c(Cl)c2)c1/C=N/OCCN1CCOCC1
Out: -8.78

====

Test Protocol: qHTS for Inhibitors of Plasmodium falciparum (CP250) proliferation (AID 504320)
Recorded Conditions: P. falciparum CP250 in erythrocytes, SYBR Green DNA, 72 h; series mostly up to 6.7 µM
Results filed as inconclusive are left out. Activity calls are given as the source filed them. The call rests on the fitted dose curve; in most records, active means well fitted inhibition curve with a large enough effect; inconclusive means small, poorly fitted or top-dose-only effect, or effect the other way; inactive means flat fitted curve, though single readings scatter.
Form entry, call: pick from active, inactive

In: Hey, what did the test say about COC(=O)N1C2CC(=O)O[C@H]3c4cc5c(cc4[C@]1(C)[C@@]3(Br)c1ccccc12)OCO5 ?
Out: active

In: Hey, what did the test say about C=CC1=C2C=C(C3CC3)N(C(CO)CO)C=C2C(=O)C(C)(OC(=O)c2ccco2)C1=O (centres undefined) ?
Out: inactive

In: Hey, what did the test say about COC(=O)C(Cc1cc(Br)c(OC)c(Br)c1O)=NO ?
Out: inactive

In: Hey, what did the test say about CC=Cc1cc2ccccc2c2c(C(=O)OC)c(C(=O)OC)c(C(=O)OC(C)(C)C)n12 ?
Out: inactive

In: Hey, what did the test say about C=CCNC(=O)N1CCc2nc(-c3ccccc3)c3c(c2C1)CO[C@@H](C)C3 ?
Out: inactive

In: Hey, what did the test say about CC1(O)C(=O)C=C2C=C3CCCN3C=C2C1=O (centres undefined) ?
Out: inactive

In: Hey, what did the test say about Cc1ccc(C#C[C@@H]2C=C[C@H](Oc3ccc4c(c3)OCO4)[C@@H](CO)O2)c(C)c1 ?
Out: inactive

In: Hey, what did the test say about COc1cccc([C@H]2NC(=O)CC=C[C@H](C)[C@@H](c3cccc(OC)c3)NC(=O)CC=C[C@H]2C)c1 ?
Out: inactive

In: Hey, what did the test say about C[C@H](NC(=O)N1CCc2nc(-c3ccccc3)c3c(c2C1)CO[C@@H](C)C3)c1ccccc1 ?
Out: inactive

====

Test Protocol: Primary qHTS for inhibitors of nuclear receptor binding SET domain protein 2 (NSD2) in an isogenic RCH-ACV NSD2 p.E1099K mutant (9B) (AID 1645876); note: nearly all actives have a fitted effect of over 70% in size; note: potency is the fitted concentration of half-maximal effect
Recorded Conditions: RCH-ACV (leukaemia line) NSD2 E1099K (9B) viability, CellTiter-Glo, 72 h; series mostly up to 44.9 µM
Inconclusive results are not listed. Calls of active or inactive are those of the source. The call rests on the fitted dose curve; in most records, active means well fitted inhibition curve with a large enough effect; inconclusive means small, poorly fitted or top-dose-only effect; inactive means flat fitted curve, though single readings scatter.
Readout Name: Potency

Here's what some known entries look like.
Molecule	Potency
C=CC(=O)Nc1cccc(C)c1Nc1ncc2cc(-c3c(Cl)c(OC)cc(OC)c3Cl)ccc2n1	3.66 µM (active)
CCC(C)n1cc(C)c2c(C(=O)NCc3c(C)cc(C)[nH]c3=O)cc(-c3ccc(N4CCNCC4)nc3)cc21 (centres undefined)	20.5 µM (active)
C=C(C(=O)O)C1CC2=C(C)C(=O)CC2C(C)CC1O (centres undefined)	11.5 µM (active)
CC(=O)[C@H]1CCC2C3CCC4=CC(=O)CC[C@]4(C)C3[C@H](O)C[C@@]21C (some centres undefined)	inactive
c1ccc(Cn2c(-c3ccc(OCC(C4CCNCC4)n4c(-c5ccccc5)nc5ccccc54)cc3)nc3ccccc32)cc1 (centres undefined)	6.61 µM (active)
Cc1cn(C2OC(CO)C(O)C2F)c(=O)[nH]c1=O (centres undefined)	inactive
COc1cc(OC)c2ccc(=O)oc2c1	inactive
CCCC(NC(=O)/C(C#N)=C/c1cccc(Br)n1)c1ccccc1 (centres undefined)	2.91 µM (active)

In: Requested field: Potency. Item: CC(C)c1ccc(NC(=O)C(c2ccccc2)N(C)C(=O)Cc2c[nH]c3ccccc23)cc1 (centres undefined)
Out: 20.5 µM (active)

Taken from PubChem BioAssay (NCATS).
